Attribution: PubChem BioAssay (NCI)

Tested on: PC-3 prostate
Test: NCI-60 one-dose screen, 48 h
Settings: 10 µM unless noted
Compounds without any hit were thinned out: in the full panel of roughly 83,000, 20% have a hit. Active and inactive are the calls of the source. Rule for the calls: active = growth percent below 10; inactive = the rest.
Possible outcomes: active, inactive

molecule	category
COC1=CC(=O)O[C@@H](/C=C/c2ccc3c(c2)OCO3)C1	inactive
COC(=O)[C@H](Cc1ccccc1)NC(=O)c1csc([C@@H](C[C@H](C(C)C)N(C)C(=O)[C@@H](NC(=O)[C@H]2CCCN2C)C2CC2)OC(C)=O)n1	inactive
Clc1cccc(NCOOC2(OOCNc3cccc(Cl)c3)CCCCCC2)c1	inactive
Cc1ccc(Nc2nc3c(s2)C2=CC[C@@H]4[C@H](CC[C@]5(C)C(=O)CC[C@@H]45)[C@@]2(C)CC3)cc1	inactive
COC(=O)[C@@]1(O)C[C@H]2O[C@]1(C)n1c3ccccc3c3c4c(c5c6ccccc6n2c5c31)C(=O)NC4	active
CCn1c2ccccc2c2cc(C(=O)c3cccc4c3CCCN4)ccc21	inactive
CCCC[C@H](NC(=O)[C@H]1CCCN1C)C(=O)N(C)[C@H](C[C@@H](OC(C)=O)c1nc(C(=O)N[C@@H](Cc2ccccc2)C[C@H](C)C(=O)OCC)cs1)C(C)C	inactive
CC1(C)N=C(N)N=C(N)N1c1ccc(OCCCNC(=O)Nc2ccc(S(=O)(=O)F)cc2)c(Cl)c1	inactive
COc1ccc(/C=C\c2cc(OC)c(OC)c(OC)c2)c(NS(=O)(=O)c2ccc(C)cc2)c1O	inactive
C[n+]1c(/C=C/c2ccc(N(CCCl)CCCl)cc2)sc2ccccc21	inactive
CC(C)OC(=O)[C@H](C)NP(=O)(Oc1ccccc1)C1CCCN(O)C1=O (stereo partly drawn)	inactive
COc1ccc(/C(C)=C(\c2ccc(OCCN3CCOCC3)cc2)c2ccc(OC(=O)Cc3ccccc3)cc2)cc1	inactive
CCCCOc1ccc(C(N)Cc2ccccc2)cc1 (stereo not drawn)	inactive
COC(=O)[C@@H](C)C[C@H](Cc1ccccc1)NC(=O)c1csc([C@@H](C[C@H](C(C)C)N(C)C(=O)[C@@H](NC(=O)[C@H]2CCCCN2C)c2ccc(F)cc2)OC(C)=O)n1	inactive
NC1CC2CCCCC2CC1(O)c1ccccc1 (stereo not drawn)	inactive
COC1CC2c3ccccc3C1C(C)=[N+]2C (stereo not drawn)	inactive
[Cl][Hg][n]1c(-c2ccco2)nc2ccccc21	inactive
Cc1cc(N(CCCl)CCCl)ccc1C=Nc1ccccc1-c1ccccc1	inactive

====

Tested on: HOP-62 NSCLC
Experiment: NCI-60 one-dose screen, 48 h (100 = growth as untreated, 0 = no growth, -100 = all killed)
Conditions: 10 µM unless noted
About 83,000 compounds went through this panel and 20% of them were active in at least one assay; those are over-represented in the sample as a whole.
hey, just use Criterion met if measured growth is less than 20%, otherwise Criterion not met

> print(dat)
                                    compound           category
 1  O=C(N/N=C\c1ccc(N(CCCl)CCCl)cc1Cl)c1cccnc1  Criterion not met
 2  COC(=O)[C@@H](C)C[C@H](Cc1ccccc1)NC(=O)c1nc([C@@H](C[C@H](C(C)C)N(C)C(=O)[C@@H](NC(=O)[C@H]2CCCN2C)C(C)C)OC(C)=O)sc1C  Criterion not met
 3  Cc1ccc(N2COOC3(OOC2)C2CC4CC(C2)CC3C4)cc1  Criterion not met
 4  COc1cc2c(cc1OCCCn1c(-c3ccccn3)nc3ccccc31)N=C[C@@H]1CCCN1C2=O      Criterion met
 5  C=CCCCCCCCCC(=O)[O-].C=CCCCCCCCCC(=O)[O-].[Zn+2]  Criterion not met
 6  COc1cccc(C=NC(Cc2cnc[nH]2)C(=O)O)c1O (centres undefined)  Criterion not met
 7  O=C(N/N=C\c1ccc(N(CCCl)CCCl)cc1)c1cccc([N+](=O)[O-])c1      Criterion met
 8                       C1CCC2(CC1)OOCNCOO2  Criterion not met
 9  C=CC12CCN(CC1)C(C(O)c1ccnc3ccc(OC)cc13)C2 (centres undefined)  Criterion not met
10  COc1cc(C=C2c3ccccc3C(=O)c3ccccc32)ccc1OCCCCOc1cc2c(cc1OC)C(=O)N1CCCC1C=N2 (centres undefined)      Criterion met
11         O=[N+]([O-])/C=C\c1ccc(Cl)c(Cl)c1  Criterion not met
12  CC12CC=CCC1CCC1C2CCC2(C)C(c3ccc(=O)oc3)CCC12O (centres undefined)      Criterion met
13  O=C1Nc2ccccc2C2c3cccn3-c3ccccc3CN12 (centres undefined)  Criterion not met
14  COC(=O)[C@H](Cc1ccccc1)NC(=O)c1csc([C@@H](C[C@H](C(C)C)N(C)C(=O)[C@@H](NC(=O)[C@H]2CCCCN2C)C2CC2)OC(C)=O)n1      Criterion met
15  O=[N+]([O-])CC(c1ccccc1Cl)c1c(-c2ccccc2)[nH]c2ccccc12 (centres undefined)  Criterion not met
16  COC(=O)[C@H](Cc1ccccc1)NC(=O)c1csc([C@@H](C[C@H](C(C)C)N(C)C(=O)[C@@H](NC(=O)[C@H]2CCCN2C)C2CC2)OC(C)=O)n1  Criterion not met
17                         Nc1ncnc2n[nH]nc12  Criterion not met
18                       Cn1cc(C=O)c2nccnc21  Criterion not met

====

Each item that follows carries a reported growth.
Tested on: U251 CNS
Experiment: NCI-60 one-dose screen, 48 h (100 = growth as untreated, 0 = no growth, -100 = all killed)
Conditions: 10 µM unless noted
This is part of a sample that, as a whole, favours compounds with a hit. Of some 83,000 tested, about 20% had one in any assay.
measurement_name: growth (%)

> print(dat)
                                   compound  unit.abbrev  endpoint.value
1               CCCCC1(CCC)C(=O)NC(=S)NC1=O            %            95.9
2  CCCCCCCCCCCCCC[P+](CCCCCC)(CCCCCC)CCCCCC            %           -68.4
3  CN(C)C1C(=O)C(C(N)=O)=C(O)C2(O)C(=O)C3=C(O)c4c(O)cccc4C(C)(O)C3CC12.[Cl][Sb]([Cl])[Cl] (stereo not drawn)            %            10.8

====

Test system: NCI-H322M lung
Test: NCI-60 one-dose screen, 48 h (100 = growth as untreated, 0 = no growth, -100 = all killed)
Details: 10 µM unless noted
The panel holds about 83,000 compounds, 20% with a hit somewhere; the sample as a whole holds those more often.
hey, just use condition met if measured growth is less than 90%, otherwise condition not met

compound	category
O=[N+]([O-])/C=C\c1ccc(Cl)c(Cl)c1	condition not met
CCOC(=O)CCN(C)C1=Nc2ccc(Cl)cc2C(c2ccccc2)=[N+]([O-])C1	condition not met
C[C@@H]1O[C@@H](O[C@H]2C[C@@H](O)[C@]3(CO)C4C(CC[C@]3(O)C2)[C@@]2(O)CC[C@H](C3=CC(=O)OC3)[C@@]2(C)C[C@H]4O)[C@H](O)[C@H](O)[C@H]1O (some centres not stated)	condition met
Cc1ccc(S(=O)(=O)C(Cl)(Cl)Cl)cc1	condition not met
O=C(CCl)c1ccc([N+](=O)[O-])o1	condition not met
Cc1c(C)c([N+](=O)[O-])c(C)c(C)c1[N+](=O)[O-]	condition not met
O=NNc1ccccn1	condition not met
NC(CCl)CCl	condition not met
COC(=O)[C@@H](C)C[C@H](Cc1ccccc1)NC(=O)c1nc([C@@H](C[C@H](C(C)C)N(C)C(=O)[C@@H](NC(=O)[C@H]2C[C@H](O)CCN2C)C(C)C)OC(C)=O)sc1C(C)C	condition met
O=C(Nc1ccc([As]=[As]c2ccc(NC(=O)c3ccccc3)cc2)cc1)c1ccccc1 (configuration not stated)	condition met
COc1cc2c(c(OC)c1OC)-c1ccc([O-])c(=O)cc1[C@@H](NC(C)=O)CC2.COc1cc2c(c(OC)c1OC)-c1ccc([O-])c(=O)cc1[C@@H](NC(C)=O)CC2.[Cu+2]	condition met
CC(=O)OC1C(OC/C2=C/C3[C@@H](C(C)C)CC=C(C)[C@@H]3CC(OC(=O)/C=C/c3cn(C)cn3)[C@]3(C)C=C[C@@]2(O)O3)OCC(O)C1O (some centres not stated)	condition met
COc1ccc2nc(NC(=O)COc3cc(/C=C\c4cc(OC)c(OC)c(OC)c4)ccc3OC)sc2c1	condition met
O=C(N/N=C/c1ccc(N(CCCl)CCCl)cc1)c1cccc2ccccc12	condition not met
O=C1CCC2(O)[C@@H]3Cc4ccc(O)c5c4[C@]2(CCN3Cc2ccoc2)C1O5 (some centres not stated)	condition not met
CCC[CH2][Sn]([CH2]CCC)([CH2]CCC)[O]c1ccc(Cl)cc1Cl	condition met
COc1cc(/C=C/[N+](=O)[O-])c([N+](=O)[O-])cc1OC	condition not met
CCOc1ccc(/C=C/[N+](=O)[O-])cc1	condition not met
C[C@]12CC[C@H]3[C@@H](C[C@@H]4SC(Nc5ccccc5)=N[C@@]45CC(O)CC[C@]35C)[C@@H]1CCC2O (some centres not stated)	condition met
CCC(O)(CN)c1ccccc1 (configuration not stated)	condition not met
C[C@@]12CC[C@@H](O)C[C@@H]1CC[C@H]1[C@H]2CC[C@@]2(C)[C@H](c3ccc(=O)oc3)CC[C@@]12O	condition met
Cn1cccc1C1CC(=O)N(CCC[Se]C#N)C1=O (configuration not stated)	condition met
CC1=C2[C@@H](CC1)[C@]1(C)O[C@@](C(C)C)(C[C@H]1O)[C@H]2OC(=O)C1CC1c1ccccc1 (some centres not stated)	condition not met
C/C(CC(C)(C)N1CC1)=N\NC(=O)Nc1cccc2ccccc12	condition met
CC(CO)NC1CCCCC1 (configuration not stated)	condition not met
Brc1ccc2c(c1)c(-c1nc(-c3c[nH]c4ncccc34)cs1)cn2CCN1CCOCC1	condition met
CN(C)C(=O)Oc1ccccc1	condition not met
Oc1c(O)c(Cl)c(Cl)c(Cl)c1Cl	condition met
CCCCCCCC[N+](C)(CCCCCCCC)CCCCCCCC	condition met
CCCCCCC(=O)NC1=C(N2CC2)C(=O)C(NC(=O)CCCCCC)=C(N2CC2)C1=O	condition met
CCCCN1CCCC[C@@H]1C(=O)N[C@H](C(=O)N(C)[C@H](C[C@@H](OC(C)=O)c1nc(C(=O)NC2CCC(C(=O)OC)CC2)cs1)C(C)C)C(C)C (some centres not stated)	condition met
C[C@]12CC[C@H]3[C@@H](CC[C@]4(O)C[C@@H](O[C@@H]5O[C@H](CO)[C@@H](O[C@@H]6OC[C@@H](O)[C@H](O)[C@H]6O)[C@H](O)[C@H]5O)CC[C@]34C=O)[C@@]1(O)CC[C@@H]2C1=CC(=O)OC1	condition met
